# System: SN12C renal
# assay-summary: NCI tumour cell line growth inhibition, 48 h
readout-kind: TGI

CC(C)C(=O)Cc1ccc2ccccc2n1 :: > 100 µM
Cn1cc(-c2ccc3c(c2)ncn3-c2cc(NS(=O)(=O)C3CC3)cc(-c3ccc(F)cc3F)c2)cn1 :: > 100 µM
CC(C)(CCCCC(C)(C)NC1=NCCO1)NC1=NCCO1 :: > 10 µM
COc1cc2c(cc1C)NC(=O)/C2=C\c1ccc(Oc2ccccc2)cc1 :: 27.5 µM
CN(c1ccccc1)c1c2ccccc2nc2[nH]c3ccccc3c12 :: 5.06 µM

// Input: O=C1[C@H](Cc2ccc(O)cc2)N2C(=O)CCN(C(=O)NCc3ccccc3)[C@H]2CN1Cc1cccc2ccccc12 . Output its TGI only. > 100 µM

Give TGI for the following molecule: CN(C)CCNC(=O)c1cccc2c1nc(-c1cccnc1)c1ccccc12 35.4 µM

Kindly indicate its recorded TGI. Item: CN(C)c1ccc(/C=N/N=C(\C#N)[S][Sn]([Cl])([c]2ccccc2)[c]2ccccc2)cc1 3.12 µM

Specify measured TGI for CC1(c2ccc(Cl)cc2)C=C(c2ccc(Cl)cc2)C(C#N)=C(C(C#N)C#N)N1 (centres undefined) . 33.5 µM

For O=c1c2sc3ccccc3sc=2c(=O)c2c(Cl)c(Cl)c(Cl)c(Cl)c12 , write its TGI. > 100 µM

For the molecule CC(=O)O[C@H]([C@H](OC(C)=O)[C@H](C)OC(C)=O)[C@@H](/C=C/[C@H]1CC=CC(=O)O1)OC(C)=O , give its measured TGI value. > 100 µM

Determine from records and report TGI for Cc1cc2nnn(C3CCCCO3)c2cc1C (centres undefined) > 100 µM

Answer with the recorded TGI for the molecule listed here: C[C@H]1CCC/C=C/[C@@H]2C[C@H](OC(=O)CN(C)C)C[C@H]2[C@H](O)/C=C/C(=O)O1 6.45 µM

// fetch TGI given entry CC(=O)Nc1ccc2c(c1)C(=O)c1ccccc1-2 > 100 µM

Read the entry CN(C)[C@@H]1C(=O)C(C(=O)NCc2nc3[nH]cnc(=S)c3[nH]2)=C(O)[C@@]2(O)C(=O)C3=C(O)c4c(O)cccc4[C@@](C)(O)[C@H]3C[C@@H]12 and write its reported TGI. > 100 µM

Report TGI for CN1S(=O)(=O)N(C)P12(N=P(CP(=NP13(N(C)S(=O)(=O)N1C)N(C)S(=O)(=O)N3C)(c1ccccc1)c1ccccc1)(c1ccccc1)c1ccccc1)N(C)S(=O)(=O)N2C > 100 µM

Identify the reported TGI for the following entry. CCOC(=O)c1cn(-c2ccc([N+](=O)[O-])cc2)c(=S)n2c1nc1ccccc12 > 100 µM

Please give the documented TGI of O=C(c1c(F)c(F)c(F)c(F)c1F)n1c(=S)n(C(=O)c2c(F)c(F)c(F)c(F)c2F)c2ccccc21 > 100 µM

Specify reported TGI for the molecule shown: NC(CCC(=O)O)C(=O)NC(Cc1ccc(N(CCCl)CCCl)cc1)C(=O)O (centres undefined) > 100 µM

Input N#C[Se]CCN1C(=O)c2ccccc2C1=O , output reported TGI. 10.9 µM

Hello, please tell me recorded TGI for this one: COc1cc2c(cc1OCCCOc1cc3c(cc1OC)C(=O)N1CCC[C@H]1C(=O)N3)N=C[C@@H]1CCCN1C2=O 61.5 µM

Please give measured TGI of the following entry: OCc1ccc(N2CCc3ccc(F)cc3C2)cc1Cl 22.9 µM

Using the record for COC(=O)C1CC2CC1C1C2SC(F)(F)C1(F)F (centres undefined) , state its measured TGI. > 100 µM

Fill in reported TGI for this entry: CC(C)CCCC(C)C1CCC2C3CC([N+](=O)[O-])=C4CC(O)CCC4(C)C3CCC12C (centres undefined) 32.1 µM

Supply reported TGI belonging to this molecule: CC[C@@H]1CC[C@@H]2[C@H](CC[C@]3(C)[C@@H](O[N+](=O)[O-])CC[C@@H]23)[C@H]1C(C)=O > 100 µM

Consider the molecule CCCCCC(=O)OC[n+]1cccc(-c2c(COC(=O)NC(C)C)c(COC(=O)NC(C)C)c3n2CCC3)c1 . State its measured TGI. > 100 µM

Return reported TGI. Input molecule: O=C1c2ccccc2C2(O)N(c3ccccc3)C(=S)N(c3ccccc3)C12O (centres undefined) > 100 µM

Data credit: PubChem BioAssay (NCI)
